Assayed target: T1, human CD22, endogenous on Raji cells (human, UniProt P20273 20-847)
T1 construct: whole, on cells; Endogenous protein of the Raji cell line
T1 sequence (looked up): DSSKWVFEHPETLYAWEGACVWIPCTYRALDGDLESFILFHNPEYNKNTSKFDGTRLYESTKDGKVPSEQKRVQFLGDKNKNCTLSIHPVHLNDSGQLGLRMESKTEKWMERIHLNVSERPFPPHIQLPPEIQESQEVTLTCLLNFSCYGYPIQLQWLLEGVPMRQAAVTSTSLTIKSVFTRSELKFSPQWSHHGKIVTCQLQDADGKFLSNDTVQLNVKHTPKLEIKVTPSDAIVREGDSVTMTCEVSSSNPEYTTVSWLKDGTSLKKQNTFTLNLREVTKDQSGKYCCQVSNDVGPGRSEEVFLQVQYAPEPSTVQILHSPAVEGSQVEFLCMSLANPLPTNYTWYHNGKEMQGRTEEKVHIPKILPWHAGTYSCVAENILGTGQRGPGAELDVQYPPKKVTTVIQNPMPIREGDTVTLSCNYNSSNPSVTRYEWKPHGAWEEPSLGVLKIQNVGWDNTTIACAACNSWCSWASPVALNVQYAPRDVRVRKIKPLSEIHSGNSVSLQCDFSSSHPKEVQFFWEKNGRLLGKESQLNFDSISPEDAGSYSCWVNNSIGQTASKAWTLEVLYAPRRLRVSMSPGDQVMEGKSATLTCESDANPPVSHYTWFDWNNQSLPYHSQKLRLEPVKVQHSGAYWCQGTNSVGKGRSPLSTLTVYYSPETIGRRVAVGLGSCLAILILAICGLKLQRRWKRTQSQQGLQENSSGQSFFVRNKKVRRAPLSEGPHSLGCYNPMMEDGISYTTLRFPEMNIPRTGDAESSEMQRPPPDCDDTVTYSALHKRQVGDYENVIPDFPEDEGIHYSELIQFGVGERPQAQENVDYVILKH
Procedure text: FACS, Raji cells
Measured endpoint: Maximum mean fluorescence intensity (MFI)
# number only, unit MFI dropped from output

Binder	Maximum mean fluorescence intensity, MFI
HA22-hIgG1 (antibody, V domains shown) VH: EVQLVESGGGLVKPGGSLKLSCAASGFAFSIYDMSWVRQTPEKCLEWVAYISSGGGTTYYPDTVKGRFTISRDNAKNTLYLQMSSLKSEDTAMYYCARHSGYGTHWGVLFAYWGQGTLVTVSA VL: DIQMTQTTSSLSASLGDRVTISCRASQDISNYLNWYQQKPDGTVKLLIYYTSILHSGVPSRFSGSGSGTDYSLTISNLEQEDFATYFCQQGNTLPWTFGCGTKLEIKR	25000
F1.192.1 human-murine chimeric antibody (antibody, human IgG1, kappa, V domains shown, Chimeric, human IgG1 / kappa) VH: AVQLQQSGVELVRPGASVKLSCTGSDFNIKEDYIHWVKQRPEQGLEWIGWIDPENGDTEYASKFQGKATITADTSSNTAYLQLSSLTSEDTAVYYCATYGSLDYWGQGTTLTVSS VL: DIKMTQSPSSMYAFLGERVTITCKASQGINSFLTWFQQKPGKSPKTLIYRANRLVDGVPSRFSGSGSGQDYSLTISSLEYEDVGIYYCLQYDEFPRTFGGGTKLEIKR	24400

Prompt: Need Maximum mean fluorescence intensity of F1.105.11 human-murine chimeric antibody (antibody, human IgG1, kappa, V domains shown, Chimeric, human IgG1 / kappa; VL tied by name) VH: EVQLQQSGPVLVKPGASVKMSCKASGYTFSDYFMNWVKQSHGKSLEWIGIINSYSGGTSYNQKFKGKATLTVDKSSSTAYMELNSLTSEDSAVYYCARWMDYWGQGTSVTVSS VL: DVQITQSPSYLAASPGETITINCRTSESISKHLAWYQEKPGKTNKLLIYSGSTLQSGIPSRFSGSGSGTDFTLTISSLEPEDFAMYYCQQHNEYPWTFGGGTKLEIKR , thanks.
Completion: 24400
